tested on: Enterococcus faecalis; experiment: Antibacterial activity against Enterococcus faecalis ATCC 29212 by broth microdilution method; format: functional
A collection of molecules and their measured MIC
// units = µg/mL; emit number, no label

- Cc1sc2nc1C(=O)N[C@@H]([C@H](O)c1ccccc1)c1nc(cs1)C(=O)N[C@@H](Cc1ccc(O)cc1)C(=O)N[C@@H]([C@@H](C)[C@@H]1CO1)c1nc(cs1)-c1nc(cs1)-c1nc(-c3nc(C(N)=O)cs3)ccc1-c1nc(cs1)C(=O)N[C@H]2CC(N)=O: 0.25
- C=C(NC(=O)c1csc(-c2ccc3c(n2)-c2csc(n2)-c2csc(n2)[C@H]([C@@H](C)[C@@H]2CO2)NC(=O)[C@H](Cc2ccc(OC(C)=O)cc2)NC(=O)c2csc(n2)[C@H]([C@H](OC(C)=O)c2ccccc2)NC(=O)c2nc(sc2C)[C@H](CC(N)=O)NC(=O)c2csc-3n2)n1)C(=O)NC(=C)C(=O)OC: 32
- C=C(NC(=O)c1csc(-c2ccc3c(n2)-c2csc(n2)-c2csc(n2)[C@H]([C@@H](C)[C@@H]2CO2)NC(=O)[C@H](Cc2ccc(O)cc2)NC(=O)c2csc(n2)[C@H]([C@H](O)c2ccccc2)NC(=O)c2nc(sc2C)[C@H](CC(N)=O)NC(=O)c2csc-3n2)n1)C(=O)NC(=C)C(=O)OC: 8
- Cc1sc2nc1C(=O)N[C@@H]([C@H](O)c1ccccc1)c1nc(cs1)C(=O)N[C@@H](Cc1ccc(O)cc1)C(=O)N[C@@H]([C@@H](C)[C@@H](O)CCl)c1nc(cs1)-c1nc(cs1)-c1nc(-c3nc(C(N)=O)cs3)ccc1-c1nc(cs1)C(=O)N[C@H]2CC(N)=O: 0.25
- Cc1sc2nc1C(=O)NCc1nc(cs1)C(=O)N[C@@H](Cc1ccc(O)cc1)C(=O)N1C[C@H](O)[C@H](C)[C@H]1c1nc(cs1)-c1nc(cs1)-c1nc(-c3nc(C(N)=O)cs3)ccc1-c1nc(cs1)C(=O)N[C@H]2CC(N)=O: 4
- Cc1sc2nc1C(=O)N[C@@H]([C@H](O)c1ccccc1)c1nc(cs1)C(=O)N[C@@H](Cc1ccc(O)cc1)C(=O)N1C[C@H](O)[C@H](C)[C@H]1c1nc(cs1)-c1nc(cs1)-c1nc(-c3nc(C(N)=O)cs3)ccc1-c1nc(cs1)C(=O)N[C@H]2CC(N)=O: 0.25

Data request: Look up MIC: C=C(NC(=O)C(=C)NC(=O)c1csc(-c2ccc3c(n2)-c2csc(n2)-c2csc(n2)[C@H]([C@@H](C)[C@@H]2CO2)NC(=O)[C@H](Cc2ccc(O)cc2)NC(=O)c2csc(n2)[C@H]([C@H](O)c2ccccc2)NC(=O)c2nc(sc2C)[C@H](CC(N)=O)NC(=O)c2csc-3n2)n1)C(=O)O
Data returned: 0.5
